Ref: PubChem BioAssay

biological target: Neurogenic locus notch homolog protein 3 (Homo sapiens) (UniProt Q9UM47); assay: NOTCH3 binders on small-molecule microarray, primary screen, biochemical, 635/667 nm fluorescence (AID 1096); conditions: NOTCH3 binding, 635 nm fluorescence, higher = more signal
Sequence (Q9UM47 whole entry, looked up): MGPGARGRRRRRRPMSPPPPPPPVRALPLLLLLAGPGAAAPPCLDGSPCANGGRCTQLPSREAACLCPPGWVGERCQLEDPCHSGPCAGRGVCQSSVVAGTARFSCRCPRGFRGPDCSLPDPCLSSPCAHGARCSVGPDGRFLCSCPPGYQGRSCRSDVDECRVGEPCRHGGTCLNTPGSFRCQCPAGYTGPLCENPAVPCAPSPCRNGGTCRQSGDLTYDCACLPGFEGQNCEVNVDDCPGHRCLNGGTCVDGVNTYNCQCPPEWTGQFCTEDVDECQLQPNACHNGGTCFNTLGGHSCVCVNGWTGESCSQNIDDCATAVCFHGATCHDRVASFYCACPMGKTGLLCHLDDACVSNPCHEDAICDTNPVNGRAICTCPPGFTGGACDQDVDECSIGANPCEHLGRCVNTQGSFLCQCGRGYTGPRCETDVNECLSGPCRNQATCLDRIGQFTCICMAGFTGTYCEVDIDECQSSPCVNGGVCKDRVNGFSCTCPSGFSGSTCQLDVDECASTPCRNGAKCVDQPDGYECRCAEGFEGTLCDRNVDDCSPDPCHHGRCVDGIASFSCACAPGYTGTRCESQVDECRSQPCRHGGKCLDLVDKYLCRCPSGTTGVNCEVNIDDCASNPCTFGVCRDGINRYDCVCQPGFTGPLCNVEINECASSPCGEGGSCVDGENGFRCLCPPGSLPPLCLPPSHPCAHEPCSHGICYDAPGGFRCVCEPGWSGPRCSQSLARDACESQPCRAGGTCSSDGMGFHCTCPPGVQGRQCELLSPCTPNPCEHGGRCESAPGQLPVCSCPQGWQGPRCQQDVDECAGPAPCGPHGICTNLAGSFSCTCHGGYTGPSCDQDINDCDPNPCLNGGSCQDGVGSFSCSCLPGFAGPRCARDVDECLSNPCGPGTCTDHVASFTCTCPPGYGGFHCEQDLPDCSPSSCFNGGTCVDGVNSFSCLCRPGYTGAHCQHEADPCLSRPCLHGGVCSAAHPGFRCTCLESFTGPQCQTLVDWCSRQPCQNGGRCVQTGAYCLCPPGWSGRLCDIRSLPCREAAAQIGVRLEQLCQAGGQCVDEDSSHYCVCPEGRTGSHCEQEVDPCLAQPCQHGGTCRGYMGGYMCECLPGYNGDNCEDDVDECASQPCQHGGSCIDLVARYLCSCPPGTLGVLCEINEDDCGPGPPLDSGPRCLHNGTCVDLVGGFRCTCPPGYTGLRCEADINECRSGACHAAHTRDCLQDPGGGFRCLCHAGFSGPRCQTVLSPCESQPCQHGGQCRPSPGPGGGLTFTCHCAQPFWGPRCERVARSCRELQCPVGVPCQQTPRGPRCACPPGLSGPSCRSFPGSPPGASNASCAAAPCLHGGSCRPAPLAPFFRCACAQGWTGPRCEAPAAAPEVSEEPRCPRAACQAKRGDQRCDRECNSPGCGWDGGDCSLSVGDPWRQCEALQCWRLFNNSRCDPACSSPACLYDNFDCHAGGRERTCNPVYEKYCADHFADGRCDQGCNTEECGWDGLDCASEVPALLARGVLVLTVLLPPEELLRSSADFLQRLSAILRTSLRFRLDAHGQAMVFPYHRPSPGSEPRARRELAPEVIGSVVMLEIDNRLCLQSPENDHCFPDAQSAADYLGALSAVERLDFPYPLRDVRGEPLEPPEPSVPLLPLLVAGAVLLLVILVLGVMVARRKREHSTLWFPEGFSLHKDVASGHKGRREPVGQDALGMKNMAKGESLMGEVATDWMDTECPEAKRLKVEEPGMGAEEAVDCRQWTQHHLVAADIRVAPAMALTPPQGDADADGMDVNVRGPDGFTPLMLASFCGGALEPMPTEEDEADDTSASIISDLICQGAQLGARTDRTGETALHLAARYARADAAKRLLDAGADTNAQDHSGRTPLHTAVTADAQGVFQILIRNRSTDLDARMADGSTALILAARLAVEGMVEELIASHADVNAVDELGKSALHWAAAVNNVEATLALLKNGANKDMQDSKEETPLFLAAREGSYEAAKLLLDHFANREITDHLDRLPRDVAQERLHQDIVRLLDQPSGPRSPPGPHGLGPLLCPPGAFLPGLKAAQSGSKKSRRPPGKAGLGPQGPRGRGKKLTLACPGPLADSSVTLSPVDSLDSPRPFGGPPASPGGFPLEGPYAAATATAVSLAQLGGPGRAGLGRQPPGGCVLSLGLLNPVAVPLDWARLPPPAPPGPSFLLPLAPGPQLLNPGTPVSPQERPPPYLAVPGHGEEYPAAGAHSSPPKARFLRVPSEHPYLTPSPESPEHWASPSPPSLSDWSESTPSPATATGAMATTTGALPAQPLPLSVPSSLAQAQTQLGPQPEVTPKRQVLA
parameter.measured: composite z-score

In the examples that follow, each entry is paired with its recorded composite z-score.
molecule=O=C1C[C@]2(c3ccc([N+](=O)[O-])cc3)C(=O)N(CC(F)(F)F)c3cc(CO)ccc3[C@H]2N1C1CCCCC1 parameter_measured="composite z-score" value_measured=-1.41
molecule=COc1ccc(C#Cc2ccc3c(c2)[C@]2(C(=O)N3)[C@H](C(=O)NC[C@H](O)c3ccccc3)[C@H]3C(=O)O[C@H](c4ccccc4)[C@H](c4ccccc4)N3[C@@H]2c2ccc(O)cc2)cc1 parameter_measured="composite z-score" value_measured=0.729

Please turn your attention to the following entry.
Incoming: Look up composite z-score: C=CCC(OC(C)=O)[C@@H]1[C@@H](N(Cc2ccc(-c3ccccc3)cc2)C(=O)c2cccc3ccccc23)c2cc(OCCCO)ccc2N1C(=O)c1ccc(-c2ccccc2)cc1 (stereo partly drawn)
Outgoing: -0.0827

====

experiment: E. coli acrAB mutant growth effects, primary screen, E. coli filamentation inducers, strain DRC39, OD650, 24 h (AID 1178); conditions: higher = more signal, called active from +8 up or from −8 down;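 also: growth measured as culture turbidity by optical density at 650 nm; test concentration not given here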
Classes by z-score: Low: < -0.2; Mid: ≥ -0.2 and < 0.4; High: ≥ 0.4

compound=COc1cccc(-c2cccc(=O)o2)c1 category_label=Mid
compound=CCCC[C@@H]1C[C@H]1[C@@H](NC(=O)c1ccccc1)c1ccc(C(=O)OC)cc1 category_label=Low
compound=C=CC[C@]1(C(=O)NCCCOC)N=C(c2ccc(OCCCO)cc2)O[C@H]1c1ccccc1CN=[N+]=[N-] category_label=Mid

Incoming: Sort O=C1c2ccccc2[C@](Cc2ccccc2I)(C(=O)NCCN2CCOCC2)[C@H](c2ccc(CO)cc2)N1Cc1ccccc1Cl into one of the categories.
Outgoing: High

Incoming: Would you kindly repeat that for O=C1c2ccccc2[C@](Cc2ccccc2I)(C(=O)NCC(F)(F)F)[C@H](c2ccc(CO)cc2)N1Cc1ccccc1Cl ?
Outgoing: High

Incoming: Would you kindly repeat that for CCCC[C@H]1OB(O)C[C@H]2C1=C(COC)Cn1c(=O)n(-c3ccccc3)c(=O)n12 ?
Outgoing: High

Incoming: Would you kindly repeat that for COc1ccccc1CN1C(=O)c2ccccc2[C@@H](C(=O)NC2CC2)[C@@H]1c1ccc(CO)cc1 ?
Outgoing: High

Incoming: Would you kindly repeat that for COC(=O)C(CC#Cc1ccc2c(c1)[C@]1(C(=O)N2)[C@H](C(=O)Nc2nc3ccccc3s2)[C@H]2C(=O)O[C@H](c3ccccc3)[C@H](c3ccccc3)N2[C@@H]1c1ccc(O)cc1)C(=O)OC ?
Outgoing: Mid

Incoming: Would you kindly repeat that for CCN(CC)c1ccc(N2CC=CC34O[C@@H]5C=CCCOC(=O)C5[C@H]3C(=O)N(CCCCCCO)[C@@H]4C2=O)cc1 (some centres not stated) ?
Outgoing: High

====

For each entry below, report its composite z-score value.
biological target: Calmodulin-1 (Homo sapiens) (UniProt P0DP23); experiment: calcium-bound CALM1 binders on microarrays, profiling panel, artefact control for SMM control-protein annotation, biochemical, small-molecule microarray, Cy5-labelled CALM1, plus calcium (AID 1112); details: Cy5-CALM1 binding fluorescence, higher = more signal;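 also: score merges spot fluorescence with signal to noise from triplicate slides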
Give bare numbers.

In the examples that follow, each entry is paired with its recorded composite z-score.
compound_string=COCCOC(=O)N1C(=O)[C@@]2(c3cc(C#CCNC(N)=O)ccc31)[C@H](C(=O)N1CCN(c3ncccn3)CC1)[C@H]1C(=O)O[C@H](c3ccccc3)[C@H](c3ccccc3)N1[C@@H]2c1ccc(OCCO)cc1 assayed_system="Calmodulin-1 (Homo sapiens) (UniProt P0DP23)" parameter_measured="composite z-score" value_measured=0.0615
compound_string=COC(=O)[C@@]1(Cc2ccc(OC)cc2)[C@@H]2C(=CC(=O)[C@H]2CC(=O)C(=O)N2CCCC2)CN1C(=O)c1ccccc1 assayed_system="Calmodulin-1 (Homo sapiens) (UniProt P0DP23)" parameter_measured="composite z-score" value_measured=0.713

Please turn your attention to the following entry.
Incoming: Form entry - test system: Calmodulin-1 (Homo sapiens) (UniProt P0DP23); read-out: composite z-score; compound: CCS[C@H]1[C@@H](C(=O)O)[C@H](c2ccc(C)cc2)N(S(=O)(=O)c2ccc(C)cc2)[C@@H]1CC
Outgoing: 0.0072

====

For each entry below, report its z-score value.
experiment: basal HepG2 mitochondrial membrane potential changes, profiling panel, cell-based, JC-1 fluorescence, 24 h, 100 nL compound (AID 1167); conditions: higher = more signal; also: test concentration not given here
Numbers only.

The following compounds each have a reported value; give each one's z-score.
1. CC1CC/C=C\[C@H]2OC34C=CCN(C(C)(C)C)C(=O)[C@H]3N(CCO)C(=O)[C@@H]4C2C(=O)O1 (some centres not stated)
2. [N-]=[N+]=Nc1ccccc1[C@H]1OC(c2ccc(OCCCO)cc2)=N[C@@]1(CCS(=O)(=O)c1ccccc1)C(=O)NCC(O)CO (some centres not stated)
3. CCCCN1CC=CC23O[C@@H]4C=CCCOC(=O)C4[C@H]2C(=O)N(CCCCCCO)[C@@H]3C1=O (some centres not stated)
4. COC(=O)C(CC#Cc1ccc2c(c1)[C@]1(C(=O)N2)[C@H](C(=O)Nc2nc3ccccc3s2)[C@H]2C(=O)O[C@H](c3ccccc3)[C@H](c3ccccc3)N2[C@@H]1c1ccccc1OCCO)C(=O)OC
5. COC(=O)[C@@]1(Cc2ccc(OC)cc2)[C@H]2c3cc(C(=O)N(C)C)n(CCc4ccccn4)c3C[C@H]2CN1C(=O)c1ccccc1
6. COc1ccccc1CN1C(=O)c2ccccc2[C@@]2(Cc3ccccc3N(CC(C)C)C2=O)[C@@H]1c1ccc(CO)cc1
7. O=C(c1ccccc1)N1Cc2ccccc2C[C@@]2(COC(c3ccc(OCCCO)cc3)=N2)C1=O

Outgoing:
1. -0.669
2. -1.16
3. 0.493
4. -2.7
5. -0.0203
6. -0.204
7. 1.47

The following compounds each have a reported value; give each one's z-score.
1. COCCOC(=O)N1C(=O)[C@@]2(c3cc(C#CCC(C(=O)OC)C(=O)OC)ccc31)[C@H](C(=O)Nc1nc3ccccc3s1)[C@H]1C(=O)O[C@H](c3ccccc3)[C@H](c3ccccc3)N1[C@@H]2c1ccccc1OCCO
2. COC(=O)[C@@]1(Cc2ccc(OC)cc2)[C@H]2c3cc(C(=O)N4CCCC4)n(CCN4CNCC4=O)c3C[C@H]2CN1C(=O)c1ccccc1
3. COc1cc(NN2C(C(O)c3ccco3)C=CC3C(=O)N(c4ccccc4)C(=O)C32)cc(OC)c1OC (configuration not stated)
4. C#C[C@H](O[Si](C#Cc1ccc(Oc2ccccc2)cc1)(C(C)C)C(C)C)c1ccccc1
5. C=CCC(OC(C)=O)[C@@H]1[C@@H](N(Cc2cc3ccccc3o2)C(=O)c2cccc3ccccc23)c2cc(OCCCO)ccc2N1C(=O)c1ccc(-c2ccccc2)cc1 (some centres not stated)
6. O=C(CS)NCCCCCCNC(=O)[C@@H]1C[C@@H]2C(=O)N[C@@H](Cc3ccccc3)C(=O)N2[C@@H]1c1cccc(OCCO)c1

Outgoing:
[-2.23, 0.696, -0.955, -3.3, 3.47, -1.28]

====

For each entry below, report its composite z-score value.
test system: Human papillomavirus type 1a protein E7 (residues 44-93); experiment: HPV1a E7 fragment binders on microarrays, primary screen, biochemical, small-molecule microarray, residues 44-93, 635 nm fluorescence (AID 1108); conditions: small-molecule microarray binding, fluorescence 635 nm; higher = more signal;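 also: E7 fragment applied at 1 µg/mL in TBST for 1 h at 4 C; score combines spot fluorescence with its signal to noise ratio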
Give bare numbers.

In the examples that follow, each entry is paired with its recorded composite z-score.
molecule=Cc1ccc(S[C@]2(C(=O)O)CC(=O)N(C(C)C)[C@@H]2c2ccc(CO)cc2I)cc1 parameter_measured="composite z-score" value_measured=0.506
molecule=COc1ccc(-c2cc3c(c(-c4ccc(Oc5ccccc5)cc4)n2)[Si](C(C)C)(C(C)C)OC3)cn1 parameter_measured="composite z-score" value_measured=-0.419
molecule="CCCc1cc2c(n1Cc1cc(F)cc(F)c1)C(C)C1CN(C(=O)c3ccccc3)C(C)(C(=O)OC)C21 (stereo not drawn)" parameter_measured="composite z-score" value_measured=1.35
molecule=CC(C)C[C@@H]1NC(=O)[C@@H]2C[C@H](C(=O)O)[C@H](c3cccc(OCCO)c3)N2C1=O parameter_measured="composite z-score" value_measured=-0.366
molecule="[N-]=[N+]=NCc1ccccc1[C@@H]1OC(c2ccc(OCCCO)cc2)=N[C@]1(Cc1ccccc1)C(=O)NCC(O)CO (stereo partly drawn)" parameter_measured="composite z-score" value_measured=-0.0042
molecule=COCCCNC(=O)[C@@]1(C)c2ccccc2C(=O)N(C(C)C)[C@H]1c1ccc(CO)cc1 parameter_measured="composite z-score" value_measured=0.761
molecule=COC(=O)[C@@]1(Cc2ccc(OC)cc2)[C@H]2c3cc(C(=O)N(C)C)n(C)c3C[C@H]2CN1C(=O)c1ccccc1 parameter_measured="composite z-score" value_measured=1.45

Incoming: Look up composite z-score: O=C(N1CCCCC1)[C@]1(Cc2ccccc2)N=C(c2ccc(OCCCO)cc2)O[C@@H]1c1ccccc1
Outgoing: 1.42
